Task for the reader: assign each of the following compounds its reported %Inh.
- Test system: PRKCI
- Protocol conditions: concentration: 1 μM, replicates: in singlicate; n = 1;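 further: KINOMEscan kinase panel screen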
Number first, unit second.

%Inh measured on "CS(=O)(=O)CCNCc1ccc(-c2ccc3ncnc(Nc4ccc(OCc5ccccc5)c(Cl)c4)c3c2)o1.Cl" = 13%

%Inh measured on "Fc1ccc(-c2ncn(CCCNCc3ccccc3)c2-c2ccncc2)cc1" = 0%

%Inh measured on "Cl.Cn1ccc(-c2cccc(Nc3ccnc4cc(-c5nccs5)ccc34)c2)n1" = 0%

%Inh measured on "Nc1nc(-c2ccc3c(N)n[nH]c3c2)cc(N2CCC[C@@H](C(=O)Nc3ccccc3)C2)n1.O=C(O)C(F)(F)F.O=C(O)C(F)(F)F" = 12%

----------
Task for the reader: assign each of the following compounds its reported %Inh.
- Tested on: AKT1
- Protocol conditions: concentration: 1 μM, replicates: in singlicate; n = 1
Could you give me the number in %? Just the number is fine.

%Inh measured on Cc1ccc(O)cc1Nc1cc(C(F)(F)F)nc2ccc(-c3ccncc3)cc12 [GW630823] = 5

%Inh measured on "N#Cc1ccc(Oc2ccc(Nc3ncnc4cc[nH]c34)cc2Cl)cc1" = 0

%Inh measured on Cl.Cl.c1ccc(-c2cc3ccncc3cc2OC2CCNCC2)cc1 [GSK1122999] = 0

%Inh measured on Cc1ccc(NC(=O)c2cccc(C#N)c2)cc1-c1ccc(C(=O)Nc2ccncc2)cc1 [GSK1398463] = 0

%Inh measured on "C[C@@H]1CCN(C(=O)CO)C[C@@H]1N(C)c1ncnc2[nH]ccc12" = 0

%Inh measured on COc1ccc(NC(=O)c2ccc(-c3cc(-c4nnc(C)o4)ccc3C)cc2)cc1 [GW595885] = 0

%Inh measured on CCCc1ccc(S(=O)(=O)NC2CCN(c3ccnc(Nc4ccc(OC)cc4)n3)C2)cc1 (stereo not drawn) [GSK1379737] = 0

%Inh measured on COc1ccc(Nc2nccc(N3CCC(NC(=O)Nc4ccc5c(c4)OCO5)C3)n2)cc1 (stereo not drawn) [GSK1379745] = 0

%Inh measured on "OCCOCCn1ccc2ncnc(Nc3ccc(Oc4cccc(Cl)c4)c(Cl)c3)c21" = 0

%Inh measured on "O=C(Nc1ccccc1)Nc1ccc(Oc2ccc3nccn3n2)cc1" = 13

%Inh measured on FC(F)(F)c1cc(Nc2nccc(-c3c(-c4ccc(Cl)cc4)nn4ncccc34)n2)ccc1Cl [GW829351] = 0

%Inh measured on Cl.Cn1ccc(-c2cccc(Nc3ccnc4cc(-c5nccs5)ccc34)c2)n1 [GW525701] = 0

%Inh measured on CC(C)N1CCC(n2cnc(-c3ccc(F)cc3)c2-c2ccnc(N)n2)CC1 [SB-223132] = 3

%Inh measured on O=c1cc(N2CCOCC2)nc2n(Cc3cccc(Cl)c3)ccn12 [GSK2296823] = 0

%Inh measured on "Clc1cc(Nc2ncnc3cc[nH]c23)ccc1OCc1ccccn1" = 10

----------
- System: ITK
- Protocol conditions: concentration: 1 μM, replicates: in singlicate; n = 1
Quantity measured: %Inh (%)
Could you give me the number in %? Just the number is fine.

%Inh measured on "O=C(Nc1ccccc1)Nc1ccc(Oc2ccc3nccn3n2)cc1" = 20

%Inh measured on "Cc1ccc(O)cc1Nc1cc(C(F)(F)F)nc2ccc(-c3ccncc3)cc12" = 19

%Inh measured on "Cl.Cl.c1ccc(-c2cc3ccncc3cc2OC2CCNCC2)cc1" = 11

%Inh measured on "FC(F)(F)c1cc(Nc2nccc(-c3c(-c4ccc(Cl)cc4)nn4ncccc34)n2)ccc1Cl" = 0

%Inh measured on "Cl.O=S(=O)(c1cccc(F)c1)c1ccc(Nc2ncnc3cc(Br)sc23)cc1Cl" = 0

%Inh measured on "Cl.c1ccc(Cn2ccc3cc(Nc4ncnc5ccccc45)ccc32)cc1" = 12

----------
- System: STK16
- Protocol conditions: concentration: 1 μM, replicates: in singlicate; n = 1
Quantity measured: %Inh (%)
Could you give me the number in %? Just the number is fine.

%Inh measured on "CNc1nccc(-c2c(-c3ccc(F)cc3)ncn2C2CCN(C)CC2)n1" = 0

%Inh measured on "Fc1ccc(-c2ncn(CCCNCc3ccccc3)c2-c2ccncc2)cc1" = 0

%Inh measured on "Cc1ccc(O)cc1Nc1cc(C(F)(F)F)nc2ccc(-c3ccncc3)cc12" = 28

%Inh measured on "Fc1cccc(COc2ccc(Nc3ncnc4cc[nH]c34)cc2Cl)c1" = 20

%Inh measured on "C[C@H]1CC[C@@H](C(=O)Nc2ccccc2)CN1c1cc(-c2ccc3c(N)n[nH]c3c2)nc(N)n1" = 0

%Inh measured on "C[C@@H]1CCN(C(=O)CO)C[C@@H]1N(C)c1ncnc2[nH]ccc12" = 0

%Inh measured on "Fc1cccc(COc2ccc(Nc3ncnc4sc(-c5ccc[nH]5)cc34)cc2Cl)c1" = 26

%Inh measured on "COc1ccc(NC(=O)c2ccc(-c3cc(-c4nnc(C)o4)ccc3C)cc2)cc1" = 7

%Inh measured on "O=c1cc(N2CCOCC2)nc2n(Cc3cccc(Cl)c3)ccn12" = 0

----------
- System: MAP3K1
- Protocol conditions: concentration: 1 μM, replicates: in singlicate; n = 1
Task for the reader: assign each of the following molecules its reported %Inh.
Could you give me the number in %? Just the number is fine.

%Inh measured on "CS(=O)(=O)CCNCc1nc(-c2ccc3ncnc(Nc4ccc(OCc5cccc(F)c5)c(Cl)c4)c3c2)cs1.Cl" = 0

%Inh measured on "CSc1ccc(NC2=C(c3ccccc3Cl)C(=O)NC2=O)cc1" = 14

%Inh measured on "CCC(CC)(CC)n1cnc2c(N)ncnc21" = 21

%Inh measured on "O=C(Nc1n[nH]c2nc(-c3ccco3)c(Br)cc12)c1ccc(CN2CCCC2)cc1.O=C(O)[C@H](O)[C@@H](O)C(=O)O" = 0

%Inh measured on "CN1CCC(n2cnc(-c3ccc(F)cc3)c2-c2ccnc(NC3CCNCC3)n2)CC1" = 4

%Inh measured on "Cl.Cn1ccc(-c2cccc(Nc3ccnc4cc(-c5nccs5)ccc34)c2)n1" = 10

%Inh measured on "O=c1cc(N2CCOCC2)nc2n(Cc3cccc(Cl)c3)ccn12" = 6

%Inh measured on "CC(=O)Nc1n[nH]c2ncc(-c3ccccc3)cc12" = 27

%Inh measured on "Cn1ccc2ncnc(Oc3ccc(NC(=O)Nc4cccnc4)c(Cl)c3)c21" = 0

%Inh measured on "Cc1ccc(NC(=O)c2cccc(C#N)c2)cc1-c1ccc(C(=O)Nc2ccncc2)cc1" = 12

%Inh measured on "OCCOCCn1ccc2ncnc(Nc3ccc(Oc4cccc(Cl)c4)c(Cl)c3)c21" = 0

%Inh measured on "Oc1ccc2ncnc(Nc3ccc(OCc4ccccc4)cc3)c2c1" = 5

%Inh measured on "COc1ccc(NC(=O)c2ccc(-c3cc(-c4nnc(C)o4)ccc3C)cc2)cc1" = 2

%Inh measured on "CN1c2ccc(-c3ccc(C(=O)NCCO)cc3)cc2-c2[nH]ncc2S1(=O)=O" = 9

%Inh measured on "Nc1nc(-c2ccccn2)c(-c2ccnc3ccccc23)s1" = 10

%Inh measured on "Clc1ccc(-c2cc(-c3c[nH]nc3-c3ccccn3)ccn2)cc1" = 26

%Inh measured on "O=C(NCCCN1CCCC1=O)c1cnc(NCc2cc(Cl)ccc2Cl)nc1NC1CCNCC1" = 0

%Inh measured on "C[C@H]1CC[C@@H](C(=O)Nc2ccccc2)CN1c1cc(-c2ccc3c(N)n[nH]c3c2)nc(N)n1" = 0

%Inh measured on "FC(F)(F)c1ccc(-c2nn3ncccc3c2-c2ccnc(Nc3cccc(C(F)(F)F)c3)n2)cc1" = 0

%Inh measured on CCCc1ccc(S(=O)(=O)NC2CCN(c3ccnc(Nc4ccc(OC)cc4)n3)C2)cc1 (stereo not drawn) = 1

%Inh measured on "O=C(CCO)NCCn1ccc2ncnc(Nc3ccc(Oc4cccc(C(F)(F)F)c4)c(Cl)c3)c21" = 0

%Inh measured on "Cn1cc(-c2ccc3c(c2)CCN3C(=O)Cc2cccc(C(F)(F)F)c2)c2c(N)ncnc21" = 3

%Inh measured on "COc1ccc(-c2oc3ncnc(N)c3c2-c2ccc(OC)cc2)cc1" = 10

%Inh measured on "CCn1c(-c2ccncc2)nc2cnccc21" = 10

%Inh measured on "Fc1ccc(-c2ncn(CCCNCc3ccccc3)c2-c2ccncc2)cc1" = 15

%Inh measured on "Cl.Fc1ccccc1COc1ccc(Nc2ncnc3ccc(-c4nnc(C(F)(F)F)o4)cc23)cc1Cl" = 0

%Inh measured on "Cl.Cl.c1ccc(-c2cc3ccncc3cc2OC2CCNCC2)cc1" = 19

%Inh measured on "COc1cc2c(Nc3cccc(NC(=O)c4ccccc4)c3)ncnc2cc1OCCCN1CCOCC1" = 0

%Inh measured on "Cl.c1ccc(Cn2ncc3cc(Nc4ncnc5ccccc45)ccc32)cc1" = 7

%Inh measured on "CSc1nn2c(=O)cc(N3CCOCC3)nc2n1Cc1cccc(Cl)c1Cl" = 6

%Inh measured on "Cc1cc(N2CCC(NS(=O)(=O)c3ccc(F)cc3)CC2)nc(Nc2cccc(C#N)c2)n1.O=C(O)C(F)(F)F" = 7

%Inh measured on "C[C@@H]1CCN(C(=O)CO)C[C@@H]1N(C)c1ncnc2[nH]ccc12" = 0

%Inh measured on "Nc1nccc2scc(-c3ccc4c(c3)CCN4C(=O)Cc3cc(F)ccc3F)c12" = 7
